Data credit: the supplement of paper PMC10065799

Test system: AncSZ
METHOD DESCRIPTION: phosphorylation enrichment, bacterial display (enrichment ratio); higher = better substrate or ligand; peptides without Tyr show the background;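 also: 11-residue human phosphosite peptides and single-mutation variants displayed on the E. coli surface, counted by deep sequencing, each peptide's frequency after selection divided by its frequency in the unselected input library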;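 also: frequency after pTyr selection over input frequency; kinase dosed for 20-30% of maximal phosphorylation in three min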
Recorded phosphorylation enrichment, one value per entry.
Answer field: number only, no words.

I am curious: what phosphorylation enrichment value has been reported for FTNELYMMMRD [FGFR1_Y730_C725Y_YF] ?
1.37

I'd like to know its phosphorylation enrichment. The sequence in question is QNWELYSEGLG [CNKSR1_Y665_R662W]
1.37

Record request: phosphorylation enrichment value, item GIVTGYLVLKE [DNMT3B_Y588_A585V]
1.07

Endpoint output: phosphorylation enrichment of VFLARYGPAWR [CYP2D6_Y124] . Value?
1.12

Report phosphorylation enrichment for YETDYYRKGGK [INSR_Y1190] please.
0.668

Which measured phosphorylation enrichment value corresponds to AEKPKYQINNI [TJP1_Y1602] ?
0.541

Query (sequence): YQGGTYSKACT [FGG_Y380_S384C] ; field requested: phosphorylation enrichment
0.52

###

Below is a list of entries, each paired with its recorded phosphorylation enrichment value.
Test system: AncSZ
METHOD DESCRIPTION: phosphorylation enrichment, bacterial display (enrichment ratio); higher = better substrate or ligand; peptides without Tyr show the background
The answer should be a number; do not append a unit.

Reference set (3 entries):
What value of measured phosphorylation enrichment is listed for TIMTNYNPNFC [ALK_Y1092_D1091N_YF] ?
0.987

phosphorylation enrichment for GIVEDYRPRFY [ACVRL1_Y421_P424R] ?
0.7

Query (sequence): VIECSYTSADG [DHCR7_Y382] ; field requested: phosphorylation enrichment
1.02

Further cases:
What value of phosphorylation enrichment has been reported for the following sequence? REHTVYGEPRK [MAGEA4_Y240]
0.716

Report phosphorylation enrichment for EARRVYGDIIY [ALDH5A1_Y175_H180Y] please.
0.683

// lookup phosphorylation enrichment for RHAASYSSDSE [REPS1_Y116]
0.702

###

Reported phosphorylation enrichment values for a set of sequences
ASSAY TARGET: Fyn (UniProt P06241)
Sequence (P06241 whole entry, looked up): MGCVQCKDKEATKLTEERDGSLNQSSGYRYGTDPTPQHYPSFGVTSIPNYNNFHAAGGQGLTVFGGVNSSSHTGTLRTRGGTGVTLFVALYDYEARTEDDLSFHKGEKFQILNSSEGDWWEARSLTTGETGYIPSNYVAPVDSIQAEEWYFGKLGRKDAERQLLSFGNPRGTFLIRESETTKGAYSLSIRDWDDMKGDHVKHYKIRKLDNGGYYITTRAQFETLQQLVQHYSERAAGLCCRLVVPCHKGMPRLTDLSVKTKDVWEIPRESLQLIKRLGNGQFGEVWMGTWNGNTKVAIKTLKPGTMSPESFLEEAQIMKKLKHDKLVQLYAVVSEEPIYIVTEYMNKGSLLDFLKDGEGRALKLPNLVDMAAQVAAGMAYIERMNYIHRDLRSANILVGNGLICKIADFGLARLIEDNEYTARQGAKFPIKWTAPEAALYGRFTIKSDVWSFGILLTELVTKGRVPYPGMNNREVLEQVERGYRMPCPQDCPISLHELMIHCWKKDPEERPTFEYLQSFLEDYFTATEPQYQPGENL
METHOD DESCRIPTION: phosphorylation enrichment, bacterial display (enrichment ratio); higher = better substrate or ligand; peptides without Tyr show the background

A selection of reference data follows.
Kindly state the measured phosphorylation enrichment obtained for ISKKIYDTIHD [CTNNA3_Y614] with Fyn (UniProt P06241).
0.584

What is its phosphorylation enrichment for Fyn (UniProt P06241)? Entry: DVQNEYDSNHC [ZFYVE16_Y36_A35E]
0.59

Request - read-out phosphorylation enrichment | tested on Fyn (UniProt P06241) | sequence FVSIVYNDFGE [TSC2_Y1650_S1653F]
0.599

Let us move to another entry and its phosphorylation enrichment.
Look up phosphorylation enrichment with Fyn (UniProt P06241) for this sequence: ETKKQYNSFTY [TMED3_Y85_D86N]
0.592

###

Tested on: Fer (mouse)
METHOD DESCRIPTION: phosphorylation enrichment, bacterial display (enrichment ratio); higher = better substrate or ligand; peptides without Tyr show the background
EXPERIMENTAL ENDPOINT: phosphorylation enrichment
Keep it simple and answer with nothing but the number.

Recorded phosphorylation enrichment for SSSNPYSTVTV [ACTN2_Y599_M604V] with Fer (mouse), please?
9.71

Hello, I am looking for reported phosphorylation enrichment with Fer (mouse) for TNQVIYLNPPI [DYNC1H1_Y970] . Could you help?
0.473

Recorded phosphorylation enrichment for TKFRNYLIPNG [CYP2C8_Y379_K383N] with Fer (mouse), please?
0.394

Further cases:
Lab note: need phosphorylation enrichment with Fer (mouse) for entry RYMELYDLNRD [BBS2_Y648] , please look it up.
1.14

Hi! What's the reported phosphorylation enrichment for FVSAAYVKKLD [SPTAN1_Y1020_P1017S] on Fer (mouse)?
0.365

Record VAMELYVFRGV [GAN_Y471_G474R] : what is its phosphorylation enrichment with Fer (mouse)?
0.501

Provide value of phosphorylation enrichment for this record tested with Fer (mouse): EKQARYEIVEE [CDH5_Y223_V227E]
0.56
